- assay.procedure: yeast display, Sf9 membrane polyspecificity reagent, FACS + sequencing; frameworks hold sequencing errors
experimental.endpoint: polyreactivity (PSR sort gate)

>  <monomer.sequence>
QVQLVESGGGLVQAGGSLRLSCAASGLTFNTYAMGWYRQAPGKERELVAAITKGGGRTYYADSVKGRFTISRDNAKNTVYLQMNSLKPEDTAVYYCAAYGYIYRVGYANGVVTSQDDYWGQGTQVTVSS

>  <val>
high polyreactivity

$$$$
>  <monomer.sequence>
QVQLVESGGGLVQAGGSLRLSCAASGFIIIGNAMVWYRQAPGKERELVAAISRRGGSTYYADSVKGRFTISRDNAKNTVYLQMNSLKPEDTAVYYCATDPGARVHYPTGDYWGQGTQVTLSS

>  <val>
high polyreactivity

$$$$
>  <monomer.sequence>
QVQLVESGGGLVQAGGSLRLSCAASGRIFSDYAMGWYRQAPGKERELVAVISWDGTNTYYADSVKGRFTISRDNAKNTVYLQMNSLKPEDTAVYYCAATGTSYYSAYDYWGQGTQVTVSS

>  <val>
low polyreactivity

$$$$
>  <monomer.sequence>
QVQLVESGGGLVQAGGSLRLSCAASGFIFNYNAMGWYRQAPGKERELVAAIRTSSGSTYYADSVKGRFTISRDNAKNTVYLQMNSLKPEDTAVYYCAKTRYSTYSPIYYYWGQGTQVTVSS

>  <val>
high polyreactivity

$$$$
>  <monomer.sequence>
QVQLVESGGGLVQEGGSLRLICAASGSTFAANTMGWYRQEPGKERELVAAITDRGGSTYYADSVKGRFTISRDNAKNTVYLQMITLKPEDTAVYYSAAERPPYGYLVVGYVSTQYYYWGQGTQVTVSS

>  <val>
low polyreactivity

$$$$

Asked: Fill blank: measured polyreactivity (PSR sort gate) of the sequence QVQLVESGGGLVQAGGSLRLSCAASGIIFNRYAMGWYRQAPGKERELVAAISASGDSTYYADSVKGRFTISRDNAKYTVYLQMNSLKPEDTAVDYCAADYGYRYDYWGHGTQVTVSS is ____.
Given back: low polyreactivity

====

- assay.procedure: yeast display, Sf9 membrane polyspecificity reagent, FACS + sequencing; frameworks hold sequencing errors
experimental.endpoint: polyreactivity (PSR sort gate)

Below, 8 sequences whose answers are already recorded.
>  <monomer.sequence>
QVQLVESGGGLVQAGGSLRLSCAASGSNVYIYAMGWYRQAPGKERELVASINSGGSTNYADSVKGRFTISRDNAKNTVYLQMNSLKPEDTAVYYCNADVYDTYSPLGYYYWGQGTQVTVSS

>  <polyreactivity (PSR sort gate)>
low polyreactivity

$$$$
>  <monomer.sequence>
QVQLVESVGGLVQAGGSLRLSCAASGSIFKSYAMGWYRQAPGKERELVAAITYRGGSTYYADSVKGRFTISRDNAKNTVYLQMNSLKPEDTAVYYCAKDQHRYYQVWGDYWGQGTQVTVSS

>  <polyreactivity (PSR sort gate)>
high polyreactivity

$$$$
>  <monomer.sequence>
QVQLVESGGGLVQAGGSLRLSCAASGSTFLLNAMGWYRQAPGTERELVAAITSSGGTNYADSVKGRFTISRDNAKNTVYLQMNSLKPEDTAVYYCAKDQERVTKGRFYLLEYYWGQGTQVTVSS

>  <polyreactivity (PSR sort gate)>
low polyreactivity

$$$$
>  <monomer.sequence>
QVQLVDSVGGLVQAGGSLRLSCAASGSIFNPYDMGWSRQAPGKERELVAAIDWSGGSTYYADSVKGRFTISRDNAKNTVYLQMNSLKPEDTAVYYCNARPDYSISLPGYPTLSEDDEYWGQGTQVTVSS

>  <polyreactivity (PSR sort gate)>
low polyreactivity

$$$$
>  <monomer.sequence>
QVQLVESGGGLVQAGGSLRLICAASGRIFRYYAMGWYRQAPGKERELVAAISYSGGSTYYADSVKGRFTISRDNEKNTVYLQMNILKPEDTAVYYCNAGSWKSYYSTVRYLTYSMYYWGQGTQVTVSS

>  <polyreactivity (PSR sort gate)>
high polyreactivity

$$$$
>  <monomer.sequence>
QVQLVESGGGLVQAGGSLRLSCAASGYIFFANAMGWYRPAPGKERELVAAISSDGRTYYADSVKGRFTISRDNAKNTVYLQMNRLKPEDTAVYYCAAYFSGLTYGYYVAGYDYWGQGTQVTVSS

>  <polyreactivity (PSR sort gate)>
low polyreactivity

$$$$
>  <monomer.sequence>
QVQLVESGGGLVQAGGSLRLSCAASGSTFSYNAMGWYRQAPGKERELVAAFSFISGSTYYADSVKGRFTISRDNAKNTVYLQMNSLKPEDTAVYFCAKRYRLRGRYDYWGQGTQVTVSS

>  <polyreactivity (PSR sort gate)>
high polyreactivity

$$$$
>  <monomer.sequence>
QVQLVESGVALVQAGGSLRLSCAASGSILYPYAMGWYRQAPGKERELVAAITKTDGSTYYADSVKWRFTISRDNAKNTVYLQMNSLTPEDTAVYCCNAKWTLRWYFPYWSEYDYWGQGTQVTVSS

>  <polyreactivity (PSR sort gate)>
low polyreactivity

$$$$

Asked: Give its polyreactivity (PSR sort gate) value. Item: QVQLVESGGGLVQAGGSLRLSCAASGRILDGYAMGWYRQATGKERELVAAISRTGGGTYYADSVKGRFTISRDNSKNTVFLQMISLKPEDTAVYYCAKRRYYITLQADFDYWGQGTQVTVSS
Given back: low polyreactivity

Asked: Using the record for QVQLVESGGGLVQAGGSLRLSCAASGSTFAWYAMGWYRQAPGKERELVAAISSGGRTYYADSVKGRFTISRDNAKNTVYLQMNSLKPEDTAVYYCNAVDWAYGMDYWGQGTQVTVSS , report its polyreactivity (PSR sort gate).
Given back: low polyreactivity

Asked: Which value of polyreactivity (PSR sort gate) has been reported for QVQLVESGGGLVQAGGSLRLSCAASGSIFFRYALAWYRQAPGKERELVASITSGGSTYYADSVKGRFTISRDNAKNTVYLQMNSLKPEDTAVYYCNALPYRYRRYDYWGQGTQVTVSS in the records?
Given back: low polyreactivity
